- Test system: K562
- PROTOCOL DESCRIPTION: cell viability relative to vehicle control; higher = less cytotoxic;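 also: after 48 h exposure read by CellTiter-Glo luminescence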
- ASSAY CONTEXT: 10 µM; SRSF2 genotype: SRSF2 wt/wt
ASSAY METRIC: cell viability (%)
Write the answer as a number in %, unit excluded.

[in] // fetch cell viability given entry O=C(O)/C=C/c1ccc(Cn2ccnc2)cc1 [Ozagrel]
[out] 94.6

[in] // fetch cell viability given entry CC(C)c1ccc(NC(=O)Cn2cnc3c2c(=O)n(C)c(=O)n3C)cc1
[out] 94.4

[in] // fetch cell viability given entry C[C@](N)(Cc1ccc(O)c(O)c1)C(=O)O [Methyldopa (Aldomet)]
[out] 100

[in] // fetch cell viability given entry CC(C)n1c(=O)n(C)c2cnc3cc(F)c(-c4ccc(OCCCN5CCCCC5)nc4)cc3c21
[out] 75.9

[in] // fetch cell viability given entry COc1cc(O)cc(O)c1C(=O)C=Cc1ccccc1 [Cardamonin]
[out] 77.8

====

For each of the compounds below, state its cell viability.
- Tested on: OCI-AML2
- PROTOCOL DESCRIPTION: cell viability relative to vehicle control; higher = less cytotoxic
- ASSAY CONTEXT: 10 µM; SRSF2 genotype: wt/wt
Counter-ions that a name gives are not always drawn.
Write the answer as a number in %, unit excluded.

[in] // fetch cell viability given entry Cc1cnc(C(=O)O)c[n+]1[O-] [Acipimox]
[out] 104

[in] // fetch cell viability given entry CN(CC(=O)N(Cc1ccc(C2CCCCC2)cc1)c1ccc(C(=O)O)cc1)S(=O)(=O)c1c(F)c(F)c(F)c(F)c1F
[out] 0.08

[in] // fetch cell viability given entry CCOC(=O)c1cnc2ccc(-c3cncc(NS(=O)(=O)c4ccccc4)c3)cn12
[out] 9.47

[in] // fetch cell viability given entry COc1cccc2c1C(=O)c1c(O)c3c(c(O)c1C2=O)C[C@@](O)(C(=O)CO)C[C@@H]3O[C@H]1C[C@H](N)[C@@H](O)[C@H](C)O1 [Epirubicin Hydrochloride]
[out] 11.3

[in] // fetch cell viability given entry OC[C@H]1OC(O)[C@H](O)[C@@H](O)[C@H]1O (stereo partly drawn) [D-Galactose]
[out] 108

[in] // fetch cell viability given entry N[C@@H]1CN(c2c(F)cc3c(=O)c(C(=O)O)cn([C@@H]4C[C@@H]4F)c3c2Cl)CC12CC2 [Sitafloxacin hydrate]
[out] 107

[in] // fetch cell viability given entry O=c1c(-n2ccnn2)c[nH]n1-c1cc(N2CCOCC2)ncn1 [Molidustat(BAY 85-3934)]
[out] 87.9

[in] // fetch cell viability given entry CCCCCC1=C(C)CCC1=O [Dihydrojasmone]
[out] 115

[in] // fetch cell viability given entry C[C@@H](Oc1ccc2[nH]nc(/C=C/c3cnn(CCO)c3)c2c1)c1c(Cl)cncc1Cl
[out] 4.14

[in] // fetch cell viability given entry O=C(Nc1c[nH]nc1-c1nc2ccc(CN3CCOCC3)cc2[nH]1)NC1CC1
[out] 15.3

[in] // fetch cell viability given entry O=C1CC(c2c[nH]c3ccc(F)cc23)C(=O)N1 (centres undefined)
[out] 101

[in] // fetch cell viability given entry O=NO [Sodium Nitrite]
[out] 99.5

[in] // fetch cell viability given entry C[C@H]1C[C@H]2[C@@H]3CCC4=CC(=O)C=C[C@]4(C)[C@@]3(F)[C@@H](O)C[C@]2(C)[C@@]1(O)C(=O)CO [Betamethasone (Celestone)]
[out] 108

[in] // fetch cell viability given entry O=S(=O)(NC1CCCCC1)c1ccc2c(c1)C(=NO)c1cc(S(=O)(=O)NC3CCCCC3)ccc1-2
[out] 0.59

[in] // fetch cell viability given entry CC(C)(O)CC(=O)NCCn1ccc2ncnc(Nc3ccc(Oc4cccc(C(F)(F)F)c4)c(Cl)c3)c21
[out] 76.8

[in] // fetch cell viability given entry COc1cc(C(=O)O)ccc1O [Vanillic acid]
[out] 113

[in] // fetch cell viability given entry CC1(C)C=Cc2c(ccc3c2OC[C@@H](c2ccc(O)cc2O)C3)O1 [Glabridin]
[out] 89.4

[in] // fetch cell viability given entry CS(=O)(=O)c1cccc(CNc2nc(Nc3ccc4c(c3)CCC(=O)N4)ncc2C(F)(F)F)c1
[out] 16.9

[in] // fetch cell viability given entry COc1c(N2C[C@@H]3CCCN[C@@H]3C2)c(F)cc2c(=O)c(C(=O)O)cn(C3CC3)c12 [Moxifloxacin hydrochloride]
[out] 97.2

[in] // fetch cell viability given entry COc1cc(/C=C/C(=O)OC[C@H]2O[C@H](O[C@]3(CO)O[C@H](CO)[C@@H](O)[C@@H]3OC(=O)/C=C/c3cc(OC)c(O)c(OC)c3)[C@H](O)[C@@H](O)[C@@H]2O)cc(OC)c1O [3,6'-Disinapoyl sucrose]
[out] 105

[in] // fetch cell viability given entry O=C(O[C@@H]1O[C@@H]2COC(=O)c3cc(O)c(O)c(O)c3-c3c(cc(O)c(O)c3O)C(=O)O[C@H]([C@H]1O)[C@@H]2O)c1cc(O)c(O)c(O)c1 [Corilagin]
[out] 96.2

[in] // fetch cell viability given entry Nc1[nH]c(=O)ncc1Br [5-Bromocytosine]
[out] 108

[in] // fetch cell viability given entry CC(=O)OC1C[C@H](C)CCC1C(C)C (stereo partly drawn) [(1R)-(-)-Menthyl acetate]
[out] 114

[in] // fetch cell viability given entry O=C(/C=C/c1ccc(O[C@@H]2O[C@H](CO)[C@@H](O)[C@H](O)[C@H]2O)cc1)c1ccc(O)cc1O [Isoliquiritin]
[out] 107

[in] // fetch cell viability given entry CSc1cccc(Nc2ncc3cc(-c4c(Cl)cccc4Cl)c(=O)n(C)c3n2)c1
[out] 20.9

[in] // fetch cell viability given entry CCOC(=O)c1c(CSc2ccccc2)n(C)c2cc(Br)c(O)c(CN(C)C)c12 [Arbidol HCl]
[out] 43.8

[in] // fetch cell viability given entry C/C1=C\CC[C@]23O[C@H]2[C@@H](OC3=O)c2c(C)coc2C1 [Linderane]
[out] 101

[in] // fetch cell viability given entry Cn1cc(-c2ccc3nnc(C(F)(F)c4ccc5ncccc5c4)n3n2)cn1
[out] 89.6

[in] // fetch cell viability given entry CCN(CC)CCOCCOC(=O)C1(c2ccccc2)CCCC1 [Pentoxyverine Citrate]
[out] 97

[in] // fetch cell viability given entry NCCc1c[nH]cn1 [Histamine 2HCl]
[out] 88.3

[in] // fetch cell viability given entry Cn1nnc2c(C(N)=O)ncn2c1=O [Temozolomide]
[out] 96.6

[in] // fetch cell viability given entry Cc1ncc(Cl)cc1NCc1ccc(C(=O)N[C@@H](CC2CCCC2)C(=O)NC2CC2)s1
[out] 71.3

[in] // fetch cell viability given entry CC1=C(/C=C/C(C)=C/C=C/C(C)=C\C(=O)O)C(C)(C)CCC1 [Isotretinoin]
[out] 41.8

[in] // fetch cell viability given entry Cc1cc(OCCCS(C)(=O)=O)cc(C)c1-c1cccc(COc2ccc3c(c2)OC[C@H]3CC(=O)O)c1
[out] 101

# credit: the supplement of paper PMC10981050
